Assay: Fecal excretion study in rats after oral NS, SF or CNS (LC–MS/MS)
Format: in vivo
Details: rat feces, oral CNS 110 mg/kg, 96 h
Method: The animal room was set at constant temperature of 20 ± 2 °C with humidity of 50 ± 20% and 12/12 h light/dark cycle. Eighteen male rats were fasted for 12 h before starting the experiment. […] The urine volume was recorded and the dry feces were measured for each collection period. […] The accumulative excretion percentage was calculated for each analyte as follows. […]
Reported Metric: Accumulative excretion amount (µg)
All answers are understood in µg, so give the number only.

Please review the entries below; each comes with its answer.
Compound	Val
CC(C)=CCC[C@](C)(O[C@@H]1O[C@H](CO)[C@@H](O)[C@H](O)[C@H]1O)[C@H]1CC[C@]2(C)[C@@H]1[C@H](O)C[C@@H]1[C@@]3(C)CC[C@H](O)C(C)(C)[C@@H]3[C@@H](O[C@@H]3O[C@H](CO)[C@@H](O)[C@H](O)[C@H]3O)C[C@]12C [ginsenoside Rg1]	105.509
CC(C)=CCC[C@](C)(O[C@@H]1O[C@H](CO[C@@H]2O[C@H](CO)[C@@H](O)[C@H](O)[C@H]2O)[C@@H](O)[C@H](O)[C@H]1O)[C@H]1CC[C@]2(C)[C@@H]1[C@H](O)C[C@@H]1[C@@]3(C)CC[C@H](O[C@@H]4O[C@H](CO)[C@@H](O)[C@H](O)[C@H]4O[C@@H]4O[C@H](CO)[C@@H](O)[C@H](O)[C@H]4O)C(C)(C)[C@@H]3CC[C@]12C [ginsenoside Rb1]	72.213

Q: Note Accumulative excretion amount for the compound shown: CC(C)=CCC[C@](C)(O[C@@H]1O[C@H](CO)[C@@H](O)[C@H](O)[C@H]1O)[C@H]1CC[C@]2(C)[C@@H]1[C@H](O)C[C@@H]1[C@@]3(C)CC[C@H](O)C(C)(C)[C@@H]3[C@@H](O[C@@H]3O[C@H](CO)[C@@H](O)[C@H](O)[C@H]3O[C@@H]3O[C@@H](C)[C@H](O)[C@@H](O)[C@H]3O)C[C@]12C [ginsenoside Re]
Result: 29.184

Q: Note Accumulative excretion amount for the compound shown: CC(C)=CCC[C@](C)(O[C@@H]1O[C@H](CO)[C@@H](O)[C@H](O)[C@H]1O)[C@H]1CC[C@]2(C)[C@@H]1[C@H](O)C[C@@H]1[C@@]3(C)CC[C@H](O[C@@H]4O[C@H](CO)[C@@H](O)[C@H](O)[C@H]4O[C@@H]4O[C@H](CO)[C@@H](O)[C@H](O)[C@H]4O)C(C)(C)[C@@H]3CC[C@]12C [ginsenoside Rd]
Result: 33.451
